# System under test: canine PepT1 (cPepT1) (Canis lupus familiaris, UniProt Q8WMX5)
# Construct: endogenous in cells; host or cells: MDCK (Madin-Darby Canine Kidney) cells, whole-cell [3H]-GlySar uptake
# Sequence (Q8WMX5 whole entry): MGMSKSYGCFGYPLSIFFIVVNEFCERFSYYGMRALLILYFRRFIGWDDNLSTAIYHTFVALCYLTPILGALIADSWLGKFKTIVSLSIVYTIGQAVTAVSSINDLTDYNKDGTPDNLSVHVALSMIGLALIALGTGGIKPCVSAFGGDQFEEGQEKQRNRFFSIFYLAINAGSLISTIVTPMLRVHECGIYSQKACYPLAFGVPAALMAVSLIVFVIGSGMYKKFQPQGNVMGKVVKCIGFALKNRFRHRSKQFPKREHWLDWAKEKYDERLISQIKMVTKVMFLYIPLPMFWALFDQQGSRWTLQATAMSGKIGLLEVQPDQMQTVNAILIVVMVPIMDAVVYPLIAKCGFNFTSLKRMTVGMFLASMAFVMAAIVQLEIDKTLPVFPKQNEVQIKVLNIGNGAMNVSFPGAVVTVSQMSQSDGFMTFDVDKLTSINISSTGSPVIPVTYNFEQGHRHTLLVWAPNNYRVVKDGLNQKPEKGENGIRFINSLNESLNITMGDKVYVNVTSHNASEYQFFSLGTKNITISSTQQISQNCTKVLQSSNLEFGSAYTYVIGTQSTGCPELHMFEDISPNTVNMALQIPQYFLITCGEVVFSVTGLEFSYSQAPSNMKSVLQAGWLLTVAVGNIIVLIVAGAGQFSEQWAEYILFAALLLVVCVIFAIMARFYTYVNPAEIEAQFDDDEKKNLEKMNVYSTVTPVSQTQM
# Protocol: Inhibition of H+-dependent 100 μM GlySar uptake by MDCK cells cultured in LHM
# Assay type: cell-based
# Test conditions: 1 mM extracellular substrate, 100 μM GlySar, pH 6.0, 30 min
Value kind: % inhibition of H+-dependent GlySar uptake (%)
Numbers only, in %.

CC1(C)S[C@@H]2[C@H](NC(=O)Cc3ccccc3)C(=O)N2[C@H]1C(=O)O    0
CC(C)C[C@H](N)C(=O)N[C@@H](Cc1c[nH]c2ccccc12)C(=O)O    113
NCC(=O)O    5.0

As a next step, examine the compound that follows.
Query: Identify measured % inhibition of H+-dependent GlySar uptake corresponding to "NCCC(=O)N[C@@H](Cc1cnc[nH]1)C(=O)O"
Response: 50
